Data provenance is ChEMBL document CHEMBL1773009.

The compounds listed here are annotated with their Ki.
# TESTED ON: Neuropeptide Y receptor type 1 (Homo sapiens, UniProt P25929)
# Sequence (P25929 whole entry): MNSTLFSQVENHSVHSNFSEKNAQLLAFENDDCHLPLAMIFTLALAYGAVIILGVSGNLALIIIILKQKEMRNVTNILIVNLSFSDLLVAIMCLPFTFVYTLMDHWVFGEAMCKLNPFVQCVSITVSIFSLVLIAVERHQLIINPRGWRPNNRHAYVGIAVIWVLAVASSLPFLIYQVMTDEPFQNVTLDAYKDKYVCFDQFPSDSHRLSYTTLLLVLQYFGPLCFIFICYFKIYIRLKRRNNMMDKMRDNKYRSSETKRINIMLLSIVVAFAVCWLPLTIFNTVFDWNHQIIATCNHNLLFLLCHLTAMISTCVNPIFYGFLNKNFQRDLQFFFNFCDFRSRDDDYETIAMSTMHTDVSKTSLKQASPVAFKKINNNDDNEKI
# TEST SUMMARY: Displacement of [3H]-UR-MK114 from Y1R in human SK-N-MC cells
# Type: cell-based
MEASURED ATTRIBUTE: Ki

- QUERY SMILES: "Cc1cc(/C=C/c2cc3c4c(c2)CCCN4CCC3)cc(C)[n+]1CCN(CCNC(=O)CCCCCCC(=O)/N=C(\\N)NCCC[C@@H](NC(=O)C(c1ccccc1)c1ccccc1)C(=O)NCc1ccc(O)cc1)CCNC(=O)CCCCCCC(=O)/N=C(\\N)NCCC[C@@H](NC(=O)C(c1ccccc1)c1ccccc1)C(=O)NCc1ccc(O)cc1.O=C([O-])C(F)(F)F"
  MEAS VALUE: "100 nM"
- QUERY SMILES: "Cc1cc(/C=C/c2cc3c4c(c2)CCCN4CCC3)cc(C)[n+]1CCN(CCNC(=O)CCCCC(=O)/N=C(\\N)NCCC[C@@H](NC(=O)C(c1ccccc1)c1ccccc1)C(=O)NCc1ccc(O)cc1)CCNC(=O)CCCCC(=O)/N=C(\\N)NCCC[C@@H](NC(=O)C(c1ccccc1)c1ccccc1)C(=O)NCc1ccc(O)cc1.O=C([O-])C(F)(F)F"
  MEAS VALUE: "61 nM"
- QUERY SMILES: "Cc1cc(/C=C/c2cc3c4c(c2)CCCN4CCC3)cc(C)[n+]1CCN(CCNC(=O)CCCNC(=O)CCCC(=O)/N=C(\\N)NCCC[C@@H](NC(=O)C(c1ccccc1)c1ccccc1)C(=O)NCc1ccc(O)cc1)CCNC(=O)CCCNC(=O)CCCC(=O)/N=C(\\N)NCCC[C@@H](NC(=O)C(c1ccccc1)c1ccccc1)C(=O)NCc1ccc(O)cc1.O=C([O-])C(F)(F)F"
  MEAS VALUE: "56 nM"
- QUERY SMILES: "Cc1cc(/C=C/C=C/c2ccc(N(C)C)cc2)cc(C)[n+]1CCCCCC(=O)/N=C(/N)NCCC[C@@H](NC(=O)C(c1ccccc1)c1ccccc1)C(=O)NCc1ccc(O)cc1.O=C([O-])C(F)(F)F"
  MEAS VALUE: "50 nM"
